Hi there, I'd appreciate the recorded Emax for every entry that follows.
# test_system: human CB2 receptor (Homo sapiens (Human), UniProt P34972)
# method_description: Membrane [35S]GTPγS binding assay
# Format: biochemical
# run_conditions: read-out: [35S]GTPγS Emax
Quick note: unit goes after the number.

Incoming: Find the measured Emax: item CCCCCCC(C)(C)c1cc(OC)c(C2=C[C@@H]3CC[C@@]2(C(=O)O)C3(C)C)c(OC)c1 , target or system human CB2 receptor (Homo sapiens (Human), UniProt P34972).
Outgoing: 98%

Incoming: Observed Emax on human CB2 receptor (Homo sapiens (Human), UniProt P34972) for CCCCCCC(C)(C)c1cc(OC)c(C2C(=O)[C@]3(C)CC[C@H]2C3(C)C)c(OC)c1 (stereo partly shown) , please.
Outgoing: 51%

Incoming: I'm curious: which Emax was measured for CCCCCCC(C)(C)c1cc(OC)c(C2=C[C@@H]3CC[C@@]2(CO)C3(C)C)c(OC)c1 tested on human CB2 receptor (Homo sapiens (Human), UniProt P34972)?
Outgoing: 76%

Incoming: Form field: Emax recorded for CCCCCCC(C)(C)c1cc(OC)c(C2=C[C@H]3CC[C@]2(CO)C3(C)C)c(OC)c1 with human CB2 receptor (Homo sapiens (Human), UniProt P34972) (enter value)
Outgoing: 121%
